Test system: SK-MEL-2 melanoma
Experiment: NCI tumour cell line growth inhibition, 48 h
The molecules listed here are annotated with their TGI.
Provide the reading as a plain figure in µM.

molecule: CCCCCCCC(=O)OC[n+]1ccc(-c2c(COC(=O)NC(C)C)c(COC(=O)NC(C)C)c3n2CCC3)cc1
value_observed: 47.1

molecule: CC1(C)CCC[C@@]2(C)C1C[C@H](O)[C@@]1(C)O[C@@](C)([C@H](O)CO)CCC21 (some centres not stated)
value_observed: 60

In the following, a different molecule is considered.
Task item: What reported TGI corresponds to COc1cccc(C(=O)Nc2ccc(CN3CCc4nc5cc(OC)c(OC)cc5cc43)cc2)c1 on SK-MEL-2 melanoma?
Reply: 22.4
